- TARGET_UNDER_TEST: Human immunodeficiency virus type 1 reverse transcriptase (Human immunodeficiency virus 1, UniProt Q72547, V106A)
- ASSAY_EXPLANATION: Inhibition of HIV1 reverse transcriptase p66/p51 V106A mutant after 30 mins by liquid scintillation counting
ASSAY_METRIC: Ki

>>> assay_value("Cc1ccc(OCCn2ccc(=O)n(Cc3cc(C)cc(C)c3)c2=O)cc1")
"7.5 µM"
>>> assay_value("Cc1cc(Br)cc(Cn2c(=O)ccn(C/C=C/c3ccccc3)c2=O)c1")
"2.3 µM"
>>> assay_value("Cc1cc(C)cc(Cn2c(=O)ccn(C/C=C/c3ccccc3)c2=O)c1")
"2.9 µM"
>>> assay_value("O=c1ccn(C/C=C/c2ccccc2)c(=O)n1Cc1cc(Cl)cc(Cl)c1")
"11 µM"
>>> assay_value("O=c1ccn(C/C=C/c2ccccc2)c(=O)n1Cc1cc(Br)cc(Br)c1")
"4.2 µM"

----------
Reported CC50 by item:
- Tested on: MT4
- ASSAY_EXPLANATION: Cytotoxicity against human MT4 cells after 4 days by MTT assay
- Assay type: cell-based
- TEST_SETTINGS: mt4, 96 h
ASSAY_METRIC: CC50 (µM)

>>> assay_value("O=c1ccn(CCOc2ccc(Cl)cc2)c(=O)n1Cc1ccccc1")
36
>>> assay_value("Cc1cc(C)cc(Cn2c(=O)ccn(C/C=C/c3ccccc3)c2=O)c1")
257
>>> assay_value("N#Cc1ccc(OCCn2ccc(=O)n(Cc3ccccc3)c2=O)cc1")
166
>>> assay_value("O=c1ccn(CCOc2ccc(-c3ccccc3)cc2)c(=O)n1Cc1ccccc1")
31
>>> assay_value("Cc1cccc(OCCn2ccc(=O)n(Cc3ccccc3)c2=O)c1")
207
>>> assay_value("Cc1cc(Br)cc(Cn2c(=O)ccn(C/C=C/c3ccccc3)c2=O)c1")
100
>>> assay_value("Cc1ccc(OCCn2ccc(=O)n(Cc3c(C)cc(C)cc3C)c2=O)cc1")
133
>>> assay_value("Cc1ccc(OCCn2ccc(=O)n(Cc3ccccc3)c2=O)cc1C")
60
>>> assay_value("O=c1ccn(C/C=C/c2ccccc2)c(=O)n1Cc1cccc2ccccc12")
293
>>> assay_value("Cc1ccc(OCCn2ccc(=O)n(CCc3ccccc3)c2=O)cc1")
129

----------
List of Ki tested on Human immunodeficiency virus type 1 reverse transcriptase (Human immunodeficiency virus 1).
ASSAY_METRIC: Ki (µM)

>>> assay_value("Cc1ccc(OCCn2ccc(=O)n(Cc3cc(C)ccc3C)c2=O)cc1")
10
>>> assay_value("N#Cc1ccc(OCCn2ccc(=O)n(Cc3ccccc3)c2=O)cc1")
51
>>> assay_value("Cc1ccc(OCCn2ccc(=O)n(CCc3ccccc3)c2=O)cc1")
6.5
>>> assay_value("CC(C)(C)c1ccc(OCCn2ccc(=O)n(Cc3ccccc3)c2=O)cc1")
15
>>> assay_value("O=c1ccn(C/C=C/c2ccccc2)c(=O)n1Cc1ccccc1")
29
>>> assay_value("O=c1ccn(CCOc2ccc(-c3ccccc3)cc2)c(=O)n1Cc1ccccc1")
8.1
>>> assay_value("O=c1ccn(CCOc2ccc3ccccc3c2)c(=O)n1Cc1ccccc1")
1
>>> assay_value("Cc1ccc(OCCn2ccc(=O)n(Cc3ccccc3)c2=O)cc1")
52

----------
- TARGET_UNDER_TEST: Human immunodeficiency virus type 1 reverse transcriptase (Human immunodeficiency virus 1, UniProt Q72547)
Doc: threshold 10 µM (exclusive). Items with Ki beneath it return satisfied; others return not satisfied.

>>> assigned_class("Cc1cc(Br)cc(Cn2c(=O)ccn(C/C=C/c3ccccc3)c2=O)c1")
"satisfied"
>>> assigned_class("Cc1ccc(OCCn2ccc(=O)n(C(C)c3ccccc3)c2=O)cc1 (stereo unspecified)")
"not satisfied"
>>> assigned_class("Cc1ccc(Cn2c(=O)ccn(CCOc3ccc(C)cc3)c2=O)cc1")
"not satisfied"
>>> assigned_class("O=c1ccn(C/C=C/c2ccccc2)c(=O)n1Cc1cc(Br)cc(Br)c1")
"satisfied"
>>> assigned_class("Cc1ccc(OCCn2cc(C)c(=O)n(Cc3ccccc3)c2=O)cc1")
"satisfied"
>>> assigned_class("O=c1ccn(C/C=C/c2ccccc2)c(=O)n1Cc1cc(F)cc(F)c1")
"not satisfied"
>>> assigned_class("Cc1ccc(OCCn2c(=O)n(Cc3ccccc3)c(=O)c3ccccc32)cc1")
"satisfied"
>>> assigned_class("Cc1ccc(OCCn2ccc(=O)n(Cc3cccc(C)c3)c2=O)cc1")
"satisfied"
>>> assigned_class("O=c1ccn(CCOc2ccc(Cl)cc2)c(=O)n1Cc1ccccc1")
"not satisfied"
>>> assigned_class("O=c1ccn(C/C=C/c2ccccc2)c(=O)n1Cc1cccc2ccccc12")
"satisfied"
>>> assigned_class("Cc1ccc(OCCn2ccc(=O)n(Cc3ccccc3)c2=O)cc1C")
"not satisfied"

Reference for the values: ChEMBL document CHEMBL2331304
